Biological target: MKLP-2 (RabK6) (Homo sapiens, UniProt O95235, S2A)
Construct: Expression clones for MKLP-21-519 (coding for residues 1 to 519) were obtained as follows; His-tag; made in house; host or cells: E. coli BL21(DE3)
Sequence (O95235 1-519 S2A limits assumed): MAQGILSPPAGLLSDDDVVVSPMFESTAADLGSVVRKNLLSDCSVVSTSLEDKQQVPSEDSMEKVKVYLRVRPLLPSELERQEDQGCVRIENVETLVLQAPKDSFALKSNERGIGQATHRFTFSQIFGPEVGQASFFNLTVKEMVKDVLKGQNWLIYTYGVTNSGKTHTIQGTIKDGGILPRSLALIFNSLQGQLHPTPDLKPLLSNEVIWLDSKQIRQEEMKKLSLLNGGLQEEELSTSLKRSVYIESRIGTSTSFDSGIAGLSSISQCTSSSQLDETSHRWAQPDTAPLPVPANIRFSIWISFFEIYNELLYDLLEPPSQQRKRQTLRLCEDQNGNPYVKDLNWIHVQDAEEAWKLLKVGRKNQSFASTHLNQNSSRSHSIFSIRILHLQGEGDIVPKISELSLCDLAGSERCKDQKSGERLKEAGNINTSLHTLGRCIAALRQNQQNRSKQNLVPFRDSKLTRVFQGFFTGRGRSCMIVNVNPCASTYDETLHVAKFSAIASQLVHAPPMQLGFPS
Test: biochemical
experimental-endpoint: IC50

Asked: Field: IC50 (MKLP-2 (RabK6) (Homo sapiens, UniProt O95235, S2A)). Entry: `CCCc1nc2c(ccc3[nH]cc(/C(C#N)=C/c4cccnc4)c32)o1`
Given back: > 50 µM

---

pIC50 reference
Target: MKLP-2 (RabK6) (Homo sapiens, UniProt O95235, S2A)
Construct: Expression clones for MKLP-21-519 (coding for residues 1 to 519) were obtained as follows; His-tag; made in house; host or cells: E. coli BL21(DE3)
Assay: biochemical
pIC50: −log10 of the molar value.

Example results:
compound="COc1cncc(/C=C(\\C#N)c2c[nH]c3ccc(OC)cc23)c1 [Example 46]" tested_target="MKLP-2 (RabK6) (Homo sapiens, UniProt O95235, S2A)" result="4.70 to 5.00"
compound="N#C/C(=C\\c1cccc(C#N)c1)c1c[nH]c2ccc(O)cc12 [Example 55]" tested_target="MKLP-2 (RabK6) (Homo sapiens, UniProt O95235, S2A)" result="> 5.30"
compound="COc1ccc2[nH]cc(/C(C#N)=C/c3cccc(C(N)=O)c3)c2c1 [Example 32]" tested_target="MKLP-2 (RabK6) (Homo sapiens, UniProt O95235, S2A)" result="4.70 to 5.00"

Asked: Field: pIC50 (MKLP-2 (RabK6) (Homo sapiens, UniProt O95235, S2A)). Entry: N#C/C(=N\c1cccnc1)c1c[nH]c2ccccc12 [Example 61]
Given back: > 5.30

Asked: Field: pIC50 (MKLP-2 (RabK6) (Homo sapiens, UniProt O95235, S2A)). Entry: COc1ccc2[nH]cc(/C(C#N)=C/c3cccc(C#N)c3)c2c1 [Example 30]
Given back: > 5.30

Asked: Field: pIC50 (MKLP-2 (RabK6) (Homo sapiens, UniProt O95235, S2A)). Entry: COc1ccc2[nH]cc(/C(C#N)=C/c3ccc(OC)nc3)c2c1 [Example 52]
Given back: 4.70 to 5.00

Asked: Field: pIC50 (MKLP-2 (RabK6) (Homo sapiens, UniProt O95235, S2A)). Entry: COc1ccc2c(/C(C#N)=C/c3cccnc3)c[nH]c2c1 [Example 26]
Given back: 5.00 to 5.30
